The reported measurements were obtained from patent US9958461B2.

# TEST SYSTEM: T1, EGFR-Wt (Homo sapiens, UniProt P00533)
# T1 construct: with the advantage of testing full-length integral membrane proteins; (GGGGS)2 linker-Cub (human ubiquitin aa 35-76)-GAL4(1-147)-mNFkB(364-550) (C); expressed in transfected cells
# ASSAY PROCEDURE: MaMTH EGFR-interactor screen, lentiviral preys against EGFR-wildtype bait (interaction score)
# Format: cell-based
# CONDITION NOTES: MaMTH interaction score of prey with EGFR-Wt bait, mean
Values of EGFR-Wt mean strictly less than 5 map to yes (1), and values of at least 5 map to no (0).

// below: answered molecules
• LAT (protein, UniProt O43561 1-262, looked up) Linker for activation of …: MEEAILVPCVLGLLLLPILAMLMALCVHCHRLPGSYDSTSSDSLYPRGIQFKRPHTVAPWPPAYPPVTSYPPLSQPDLLPIPRSPQPLGGSHRTPSSRRDSDGANSVASYENEGASGIRGAQAGWGVWGPSWTRLTPVSLPPEPACEDADEDEDDYHNPGYLVVLPDSTPATSTAAPSAPALSTPGIRDSAFSMESIDDYVNVPESGESAEASLDGSREYVNVSQELHPGAAKTEPAALSSQEAEEVEEEGAPDYENLQELN = no (0)
• MED28 (protein, UniProt Q9H204 1-178, looked up) Mediator of RNA polymerase II …: MAAPLGGMFSGQPPGPPQAPPGLPGQASLLQAAPGAPRPSSSTLVDELESSFEACFASLVSQDYVNGTDQEEIRTGVDQCIQKFLDIARQTECFFLQKRLQLSVQKPEQVIKEDVSELRNELQRKDALVQKHLTKLRHWQQVLEDINVQHKKPADIPQGSLAYLEQASANIPAPLKPT = yes (1)
• SLA2 (protein, UniProt Q9H6Q3 2-261, looked up) Src-like-adapter 2: GSLPSRRKSLPSPSLSSSVQGQGPVTMEAERSKATAVALGSFPAGGPAELSLRLGEPLTIVSEDGDWWTVLSEVSGREYNIPSVHVAKVSHGWLYEGLSREKAEELLLLPGNPGGAFLIRESQTRRGSYSLSVRLSRPASWDRIRHYRIHCLDNGWLYISPRLTFPSLQALVDHYSELADDICCLLKEPCVLQRAGPLPGKDIPLPVTVQRTPLNWKELDSSLLFSEAATGEESLLSEGLRESLSFYISLNDEAVSLDDA = yes (1)
• SH3GL2 (protein, UniProt Q99962 1-352, looked up) Endophilin-A1: MSVAGLKKQFHKATQKVSEKVGGAEGTKLDDDFKEMERKVDVTSRAVMEIMTKTIEYLQPNPASRAKLSMINTMSKIRGQEKGPGYPQAEALLAEAMLKFGRELGDDCNFGPALGEVGEAMRELSEVKDSLDIEVKQNFIDPLQNLHDKDLREIQHHLKKLEGRRLDFDYKKKRQGKIPDEELRQALEKFDESKEIAESSMFNLLEMDIEQVSQLSALVQAQLEYHKQAVQILQQVTVRLEERIRQASSQPRREYQPKPRMSLEFPTGDSTQPNGGLSHTGTPKPSGVQMDQPCCRALYDFEPENEGELGFKEGDIITLTNQIDENWYEGMLHGHSGFFPINYVEILVALPH = yes (1)
• CAMLG (protein, UniProt P49069 1-296, looked up) Guided entry of tail-anchored …: MESMAVATDGGERPGVPAGSGLSASQRRAELRRRKLLMNSEQRINRIMGFHRPGSGAEEESQTKSKQQDSDKLNSLSVPSVSKRVVLGDSVSTGTTDQQGGVAEVKGTQLGDKLDSFIKPPECSSDVNLELRQRNRGDLTADSVQRGSRHGLEQYLSRFEEAMKLRKQLISEKPSQEDGNTTEEFDSFRIFRLVGCALLALGVRAFVCKYLSIFAPFLTLQLAYMGLYKYFPKSEKKIKTTVLTAALLLSGIPAEVINRSMDTYSKMGEVFTDLCVYFFTFIFCHELLDYWGSEVP = no (0)

From here, focus on the item given below.
Field: below-cutoff. Rule: recorded EGFR-Wt mean strictly less than 5. Subject: CAV1 (protein, UniProt Q03135 2-178, looked up) Caveolin-1: SGGKYVDSEGHLYTVPIREQGNIYKPNNKAMADELSEKQVYDAHTKEIDLVNRDPKHLNDDVVKIDFEDVIAEPEGTHSFDGIWKASFTTFTVTKYWFYRLLSALFGIPMALIWGIYFAILSFLHIWAVVPCIKSFLIEIQCISRVYSIYVHTVCDPLFEAVGKIFSNVRINLQKEI yes (1)
